Experiment: NCI Yeast Anticancer Drug Screen. Data for the cln2 rad14 strain (AID 165);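 also: 0% = growth equal to vehicle treated cultures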
Settings: S. cerevisiae cln2 rad14 strain, at 50.0 µM, hits give high values
Compounds without any hit were thinned out: in the full panel of roughly 79,000, 15% have a hit. *1 amine or outer side, *2 acyl side, *3 side chain or, on linkers, in order; H or OH if unused. Where a SMILES comes first, the peptide text is derived from it. Bridges are numbered along the chain shown (N, C = ends). Roman numbers before positions name the chains, in order. [ ]: non-standard residue; d: D form. The star is where a group is joined. Actinocin(1to9) = Cc1c2oc3c(C)ccc(C(=O)[*:2])c3nc-2c(C(=O)[*:1])c(N)c1=O; NMeY = CN[CH](Cc1ccc(O)cc1)C(=O)O; Cbz = O=C(OCc1ccccc1)*; Nva = CCC[CH](N)C(=O)O; Sar = CNCC(=O)O
The following molecules are listed with their measured growth inhibition values.

| molecule | unit | growth inhibition |
| --- | --- | --- |
| CCn1c(S)c(N=NC(=S)c2ccc3ccccc3n2)c2ccccc21 | % | 23.4 |
| COc1ccc(CC2C(=O)OC(C)C(NC(=O)c3c4nc5c(C(=O)NC6C(=O)NC(C(C)C)C(=O)N7CCCC7C(=O)N(C)CC(=O)N(C)C(Cc7ccc(OC)cc7)C(=O)OC6C)ccc(C)c5oc-4c(C)c(=O)c3N)C(=O)NC(C(C)C)C(=O)N3CCCC3C(=O)N(C)CC(=O)N2C)cc1 (stereo not drawn) (I: TVP[Sar][NMeY](Me) / II: TVP[Sar][NMeY](Me); ester I:1-I:C, II:1-II:C; linker I:N-II:N via Actinocin(1to9); configuration not given here) | % | 8.5 |
| CN(N)C(=O)Nc1cccc(Cl)c1 | % | -5.25 |
| CC(=O)Oc1c(C(=O)O)cccc1-c1ccccc1 | % | -15.8 |
| Cc1cc(N=Nc2ccc(N=Nc3ccc(S(=O)(=O)O)cc3)cc2)cc(C(=O)O)c1O | % | -8 |
| NC(=O)C(=O)c1cc(Cl)c(Cl)c(Cl)c1Cl | % | -9 |
| CC(=O)OCC(=O)[C@@]1(O)CC[C@H]2[C@@H]3CCC4=CC(=O)CC[C@]4(C)[C@H]3C(=O)C[C@@]21C | % | 4.2 |
| Cn1nc2c(c1-c1ccncc1)CCc1ccccc1-2 | % | -3.55 |
| CC[N+](C)(CC)CCNc1cc2c(c3c(=O)c4ccccc4sc13)CCCC2 | % | 99.2 |
| O=C1c2ccccc2C(=O)N1CC#CCN1C(=O)c2ccccc2C1=O | % | -5.05 |
| COc1ccc(/C=C2/C(=O)N(C(=O)c3ccc(Cl)cc3)N=C2C)cc1OC | % | -3.55 |
| COC(=O)CCc1ccc(N)cc1 | % | -4.3 |
| COc1cc([C@H]2CC(=O)C[C@H](c3cc(OC)c(OC)c(OC)c3)C23C(=O)c2ccccc2C3=O)cc(OC)c1OC | % | 29.5 |
| C=C1CC/C=C(\C)C(=O)C(O)C2C1CC2(C)C (stereo not drawn) | % | 16.4 |
| C/C=C(\C)CCC(C)(O)CC (stereo not drawn) | % | 3 |
| COc1ccccc1NC(=O)CC(=O)N/N=C/c1ccc(N(CCC#N)S(=O)(=O)c2ccccc2)cc1 | % | 10.4 |
| CC1CN=C(N(Cc2ccc(F)cc2)C(=O)Nc2ccc(Cl)cc2)S1 (stereo not drawn) | % | 1.6 |
| CCc1c([N+](=O)[O-])c2cc([N+](=O)[O-])ccc2n1C | % | -1.65 |
| CCOC(=O)c1cc2cc(Br)ccc2[nH]1 | % | 5.9 |
| Cc1nc(N)[nH]c(=O)c1CCCNc1ccc(CCCCCCC2(CCl)OCCO2)cc1 | % | 2.9 |
| Cc1nc2cccc3ccc4cc5ccccc5c1c4c32 | % | 7.3 |
| CN(C=O)c1ccc(C(=O)O)cc1 | % | 2 |
| CC(C)(C)C(N)=O | % | -3.9 |
| c1ccc(Sc2nc(Sc3ccccc3)nc(Sc3ccccc3)n2)cc1 | % | 17.9 |
| O=C1O/C(=C(\Br)c2ccccc2)c2ccccc21 | % | 4.2 |
| NCC(O)COCc1ccccc1 (stereo not drawn) | % | -28.1 |
| Cc1ccnc(SCC(=O)O)n1 | % | 12.9 |
| O=C1C=CC(=O)C2CC=CCC12 (stereo not drawn) | % | -6.15 |
| CNC(=O)Oc1ccc2c(c1)[C@]1(C)CCN(C)[C@@H]1N2C | % | -5.55 |
| OC(CC(O)(C(F)(F)F)C(F)(F)F)c1cccs1 (stereo not drawn) | % | 51.5 |
| O=C(O)c1cc([N+](=O)[O-])cc(P(=O)(O)O)c1 | % | -20.2 |
| C[C@H](N)C(O)/C=C/c1ccccc1 (stereo partly drawn) | % | -2.55 |
| COc1ccc(CCN2C(CC(=O)c3ccccc3)CCCC2CC(=O)c2ccccc2)cc1OC (stereo not drawn) | % | -0.2 |
| CCCC(NC(=O)OCc1ccccc1)C(=O)NC(CO)C(=O)O (stereo not drawn) (Cbz-[Nva]-Ser-OH; configuration not given here) | % | 26.6 |
| OC1CSc2ccccc2-n2cccc21 (stereo not drawn) | % | 32.9 |
| CCOC(=O)C1=NC(c2ccccc2)(c2ccccc2)OC1=C(Cl)Cl | % | 19.8 |
| CCC1CN2CCc3cc(OC)c(OC)cc3C2CC1O (stereo not drawn) | % | -3.1 |
| CCNc1ccc(C)cc1 | % | -14 |
| CC(=O)CC(=O)C1CCC(C(=O)CC(C)=O)CC1 (stereo not drawn) | % | -28.1 |
| N#C/C(=C\c1c[nH]c2ccccc12)c1ccc([N+](=O)[O-])cc1 | % | 3.45 |
| O=[N+]([O-])c1ccc(Cl)c(/C=C/c2ncccn2)c1 | % | -28.1 |
| C1=CC(c2ccccc2)=C(c2ccccc2)C(c2ccccc2)C(c2ccccc2)=C1 (stereo not drawn) | % | 26.9 |
| N#Cc1c(O)cc(=O)n2c1[nH]c1ccccc12 | % | -10.3 |

----------
Overview of reported growth inhibition across a group of molecules:
Assay: NCI Yeast Anticancer Drug Screen. Data for the cln2 rad14 strain (AID 165);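 also: 0% = growth equal to vehicle treated cultures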
Conditions: S. cerevisiae cln2 rad14 strain, at 50.0 µM, hits give high values
The panel holds about 79,000 compounds, 15% with a hit somewhere; the sample as a whole holds those more often.

| molecule | unit | growth inhibition |
| --- | --- | --- |
| CCOC(=O)CCc1cn2cc(Br)nc(OC)c2n1 | % | 19.9 |
| CCCOc1ccc(OCC(=O)c2ccccc2)cc1 | % | 5.3 |
| CCCCSCc1nc2nc(Cl)c(Cl)nc2[nH]1 | % | 1.15 |
| CCOC(=O)Cc1nnc2n(-c3ccccc3)c(=O)c3ccccc3n12 | % | 11.8 |
| CCC(C(=O)O)C(C)(C)O (stereo unspecified) | % | 7.05 |
| CC12CCC(NC(=O)C3CCCN3C(=O)OCc3ccccc3)CC1CCC1C2CCC2(C)C(NC(=O)C3CCCN3C(=O)OCc3ccccc3)CCC12 (stereo unspecified) | % | -46 |
| Cc1nn2c(=O)n(-c3cccc(-n4nnc5c(-c6ccccc6)c(C)nn5c4=O)c3C)nnc2c1-c1ccccc1 | % | 46.1 |
| CC(C)(O)C(O)COc1c2c(cc3oc(=O)ccc13)OCO2 (stereo unspecified) | % | -1.35 |
| COc1cc2c(c3[nH]cc(C(=O)O)c(=O)c13)NC(=O)CS2 | % | -32.4 |
| Cc1nc2ccccc2s1 | % | 29 |
| CC(C)NC(c1ccccc1)c1ccccc1 | % | 10.2 |

----------
Experiment: NCI Yeast Anticancer Drug Screen. Data for the mlh1 rad18 strain (AID 175)
Conditions: S. cerevisiae mlh1 rad18 strain growth inhibition; at 50.0 µM; hits give high values
Compounds without any hit were thinned out: in the full panel of roughly 79,000, 15% have a hit. Where a SMILES comes first, the peptide text is derived from it. [ ]: non-standard residue; d: D form. The star is where a group is joined. Cbz = O=C(OCc1ccccc1)*; Nva = CCC[CH](N)C(=O)O
Below, each entry is listed alongside its reported growth inhibition.

| compound | growth inhibition / % |
| --- | --- |
| O=C(Cc1nc2ccc(C(=O)c3ccccc3)cc2[nH]c1=O)C(=O)Nc1nc2ccccc2[nH]1 | 9.5 |
| CC1CC2=Cc3c(O)c(O)cc(O)c3C(=O)C2=CO1 (stereo unspecified) | -19.1 |
| CCCC(NC(=O)OCc1ccccc1)C(=O)NC(CO)C(=O)O (stereo unspecified) (Cbz-[Nva]-Ser-OH; configuration not given here) | 8.05 |
| COc1ccc(Nc2cccc(Cl)c2)cc1 | 97.8 |
| Nc1ccc(S(=O)(=O)NNc2nc(N3CCCCC3)nc(N3CCCCC3)n2)cc1 | -5 |
| NC(=O)C(=O)C(c1ccccc1)c1ccccc1 | -8.35 |
| OC(c1ccccc1)(c1ccccc1)C1CC1 | 10.9 |
| [O-]/[N+](=C\c1ccc(OCc2ccccc2)cc1)c1ccccc1 | -13.5 |
| COC1=C(N(C)C)C(=O)c2ccccc2C1=O | 4.55 |
| CC[N+](C)(CC)CCNc1cc2c(c3c(=O)c4ccccc4sc13)CCCC2 | 99 |
| O=C(O)c1cscn1.O=C(O)c1cscn1.[I][Pt][I] | 48 |
